meta.source: patent US20130116182A1

- test_system: HLA-DRB1*0101 (DR0101) (Homo sapiens, UniProt P01903+P01911, A100R/D57E/F55L/F60I/F76Y/I96L/L162R/M171V/P40L/Q125E/R42F/V115G/Y59C)
- procedure_summary: HLA-DR peptide binding competition assay, DR0101
- condition_parameters: DR0101; concentration displacing 50% reference peptide; ± standard error of the mean; NB = no binding
No end group written: not given here.
measured_endpoint: IC50

// query Reported IC50 for SYATNMFATWSP [FVIII2194-2205, F2196A] : what is it?
// result > 10 µM
